The measurements presented in this section are drawn from PubChem BioAssay.

# test.details: cell viability in Huh7 cells, primary screen, cytotoxicity control for HCV replication inhibitor project, CellTiter-Glo luminescence, basal, 48 h (AID 1143);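 further: Huh7 hepatoma cells carrying a hepatitis C replication reporter with no stimulus; test concentration not given here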
# measurement.conditions: Huh7 HCV replicon, higher = more signal, called active from +8 up or from −8 down
Active and inactive are the calls of the source.
Below is a list of entries, each paired with its recorded z-score value.

CCCC[C@@H]1C[C@H]1[C@@H](NC(=O)c1ccco1)c1ccccc1C(F)(F)F = -0.547 (inactive)
CN(C)C(=O)[C@]1(Cc2ccccc2N=[N+]=[N-])N=C(c2ccc(OCCCO)cc2)O[C@@H]1c1ccccc1N=[N+]=[N-] = -4.48 (inactive)
COC(=O)[C@@]1(Cc2ccc(OC)cc2)[C@H]2c3cc(C(=O)N(C)C)n(CCc4ccccn4)c3C[C@H]2CN1C(=O)c1ccccc1 = -2.18 (inactive)
O=C1C2C=CC(C(O)c3cc(C(F)(F)F)cc(C(F)(F)F)c3)N(n3cnnc3)C2C(=O)N1Cc1ccccc1 (stereo not drawn) = -1.34 (inactive)
CCOC(=O)C[C@H]1[C@H](OC(=O)c2cc3ccccc3oc2=O)[C@@H](NC(=O)c2ccccc2)c2cc(OCCCO)ccc2N1C(=O)c1ccc2ccccc2n1 = -0.468 (inactive)

## Task Query (molecule): N#Cc1ccc(NN2C(C(O)C(c3ccccc3)c3ccccc3)C=CC3C(=O)N(c4ccccc4)C(=O)C32)cc1 (stereo not drawn) ; field requested: z-score
## Result -0.919 (inactive)

## Task Query (molecule): `CCOC(=O)C1=C[C@@H](C(C)(C)C)N(S(=O)(=O)c2ccc(C)cc2)[C@H]1c1ccc(F)cc1` ; field requested: z-score
## Result -3.79 (inactive)

## Task Query (molecule): `COCCCNC(=O)[C@]1(CCC(=O)OC(C)(C)C)N=C(c2ccc(OCCCO)cc2)O[C@@H]1c1ccccc1CN=[N+]=[N-]` ; field requested: z-score
## Result 0.107 (inactive)

## Task Query (molecule): O=C1OCCC/C=C\[C@H]2OC34C=CCN(Cc5ccccc5)C(=O)[C@H]3N(CCCO)C(=O)[C@@H]4C12 (stereo partly drawn) ; field requested: z-score
## Result -0.639 (inactive)

## Task Query (molecule): CN1C(=O)C2C=CC(C(O)C#Cc3ccccc3)N(N3CCCCC3)C2C1=O (stereo not drawn) ; field requested: z-score
## Result 0.913 (inactive)

## Task Query (molecule): `CCOC(=O)C[C@H]1[C@H](OC(=O)c2ccc(C(=O)c3ccccc3)cc2)[C@@H](NC(=O)c2ccccc2)c2cc(OCCCO)ccc2N1C(=O)Cc1ccc(OC)cc1` ; field requested: z-score
## Result 0.0963 (inactive)

## Task Query (molecule): O[C@@H](Cc1ccccc1)[C@H]1C2C=CCCC=C2CN1Cc1cccc(Cl)c1 (stereo partly drawn) ; field requested: z-score
## Result -1.1 (inactive)

## Task Query (molecule): O=C1C2C=CC(C(O)c3cccc4ccccc34)N(Nc3ccccc3F)C2C(=O)N1c1ccccc1 (stereo not drawn) ; field requested: z-score
## Result -0.586 (inactive)

====

Below is a list of entries, each paired with its recorded z-score value.
# test.details: fission yeast growth modulation, primary screen, strain 972, OD600, 24 h, no modulator (AID 1090);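 further: basal condition with compound alone and no growth modifier present; test concentration not given here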
# measurement.conditions: S. pombe 972 growth, higher = more signal, called active from +8 up or from −8 down
Calls of active or inactive are those of the source.

COc1cc2c(cc1O)C(C1CC1)N(Cc1sc3ccccc3c1Cl)CC2 (stereo not drawn) = -20 (active)
C[N+](C)(C)CCCCCCNC(=O)[C@@H]1C[C@@H]2C(=O)N[C@@H](Cc3ccccc3)C(=O)N2[C@@H]1c1cccc(OCCO)c1 = 0.297 (inactive)
Cc1nc2cc(Br)ccc2c(=O)o1 = 0.597 (inactive)
CCCC=C(CCC)[C@@H](NC(=O)c1cccs1)c1ccc(C(F)(F)F)cc1 = -2.1 (inactive)
[N-]=[N+]=NCc1ccccc1C[C@]1(C(N)=O)COC(c2ccc(OCCCO)cc2)=N1 = -1.09 (inactive)

## Task Query (molecule): `CCCC[C@@H]1C[C@H]1[C@@H](NC(=O)c1ccco1)c1ccccc1C(F)(F)F` ; field requested: z-score
## Result 1.13 (inactive)

## Task Query (molecule): `COC(=O)[C@@]1(Cc2ccccc2)[C@H]2c3cc(C(=O)N4CCCC4)n(Cc4ccc(S(C)(=O)=O)cc4)c3C[C@H]2CN1C(=O)c1ccccc1` ; field requested: z-score
## Result 0.955 (inactive)

## Task Query (molecule): `COc1cc2c(cc1OC)CN(C(=O)[C@@H]1[C@H]3C(=O)O[C@H](c4ccccc4)[C@H](c4ccccc4)N3[C@H](c3ccccc3OCCO)[C@@]13C(=O)Nc1ccc(C#CCCO)cc13)CC2` ; field requested: z-score
## Result -1.3 (inactive)

====

Below is a list of entries, each paired with its recorded composite z-score value.
# System: Neuregulin-1 EGF-like domain
# test.details: binders of neuregulin-1 EGF-like domain, primary screen, biochemical, small-molecule microarray, 635 nm fluorescence (AID 1081);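 further: binding of the protein to compounds printed on small-molecule microarray slides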
# measurement.conditions: small-molecule microarray binding, higher = more signal

CN1C(=O)C2C=CC(C(O)c3ccc([N+](=O)[O-])cc3)N(N3CCCCC3)C2C1=O (centres undefined) = 0.961
[N-]=[N+]=NCc1ccccc1[C@@H]1OC(c2ccc(OCCCO)cc2)=N[C@]1(Cc1ccccc1)C(=O)NCC(O)CO (some centres undefined) = 1.2
COC(=O)C(CC#Cc1ccc2c(c1)[C@]1(C(=O)N2)[C@H](C(=O)Nc2nc3ccccc3s2)[C@H]2C(=O)O[C@H](c3ccccc3)[C@H](c3ccccc3)N2[C@@H]1c1ccccc1OCCO)C(=O)OC = 1.31
CCOC(=O)C[C@H]1[C@H](OC(=O)c2cc3ccccc3oc2=O)[C@@H](NC(=O)c2ccccc2)c2cc(OCCCO)ccc2N1C(=O)c1ccc2ccccc2n1 = 1.18
O=C1C[C@@](C(=O)NCC(F)(F)F)(c2ccc([N+](=O)[O-])cc2)[C@@H](c2ccc(CO)cc2I)N1C1CCCCC1 = 1.24
C=CCOC(=O)[C@H]1[C@@H]2C(=O)O[C@@H](c3ccccc3)[C@@H](c3ccccc3)N2[C@@H](c2ccc(OCCOC(=O)[C@@H]3C[C@@H]4C(=O)N[C@@H](CC(C)C)C(=O)N4[C@@H]3c3ccc(O)cc3)cc2)[C@]12C(=O)Nc1ccccc12 = 1.2

## Task Query (molecule): `COc1ccccc1CN1C(=O)c2ccccc2[C@@H](C(=O)NC2CC2)[C@@H]1c1ccc(CO)cc1` ; field requested: composite z-score
## Result 1.29

====

# test.details: E. coli DRC41 culture turbidity changes, primary screen, E. coli filamentation inducer project, strain DRC41, OD650, 48 h (AID 1152);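 further: E. coli MC1000 strain DRC41 lacking acrAB efflux pump and sulA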
# measurement.conditions: E. coli DRC41 (acrAB sulA), higher = more signal, called active from +8 up or from −8 down
readout.kind: z-score
Output: the number by itself.

The cases that follow already have their z-score on record.
C[C@H]1NC(=O)[C@@]23C(=O)N[C@@H](Cc4ccccc4)C2[C@H](C)[C@@]2(C)O[C@H]2C3/C=C/C/C=C\CNC(=O)[C@@H]2CCCN2C1=O (stereo partly drawn) = -0.0438
NC(=O)NCC#Cc1ccc2c(c1)[C@]1(C(=O)N2)[C@H](c2ccc(O)cc2)N2[C@H](c3ccccc3)[C@H](c3ccccc3)OC(=O)[C@H]2[C@@H]1C(=O)O = -0.876

The record that follows has no z-score shown yet.
## Task Query (molecule): `CC(C)N1C(=O)C[C@@](C(=O)NCC(F)(F)F)(c2ccc([N+](=O)[O-])cc2)[C@H]1c1ccc(CO)cc1` ; field requested: z-score
## Result 1.09

====

# test.details: inhibitors of hydroxyurea-induced Chk1 phosphorylation, primary screen, imaging, HeLa, phospho-Chk1 antibody, percent positive cells (AID 1186)
# measurement.conditions: hydroxyurea-induced phospho-Chk1 immunofluorescence imaging, higher = more signal
Recorded z-score determines the group label, using bucket A (below -0.2), bucket B (-0.2 to below 0.2), bucket C (0.2 or more)

COc1ccc([Si](C)(C)[C@H]2[C@H](CCO)O[C@@]3(C(=O)N(Cc4ccc(N(C=O)c5ccccc5)cc4)c4ccccc43)[C@@H]2C)cc1 = bucket C

## Task Please report the category associated with `COCCCNC(=O)[C@@H]1c2ccccc2C(=O)N(Cc2ccccc2Cl)[C@H]1c1ccc(CO)cc1` , nothing else.
## Result bucket A

## Task Please report the category associated with `COCCOC(=O)N1C(=O)[C@@]2(c3ccccc31)[C@H](C(=O)N1CCc3cc(OC)c(OC)cc3C1)[C@H]1C(=O)O[C@H](c3ccccc3)[C@H](c3ccccc3)N1[C@@H]2c1ccc(OCCO)cc1` , nothing else.
## Result bucket B

## Task Please report the category associated with `O=C1c2ccccc2[C@](Cc2ccccc2I)(C(=O)NCCN2CCOCC2)[C@H](c2ccc(CO)cc2)N1C1CCCCC1` , nothing else.
## Result bucket B

## Task Please report the category associated with `COC(=O)[C@@]1(CCC(=O)OC(C)(C)C)N=C(c2ccc(OCCCO)cc2)O[C@H]1c1ccccc1N=[N+]=[N-]` , nothing else.
## Result bucket B

## Task Please report the category associated with `COC(=O)[C@@]1(Cc2ccc(OC)cc2)[C@H]2c3cc(C(=O)N4CCCC4)n(Cc4ccc(C)c(F)c4F)c3C[C@H]2CN1C(=O)c1ccccc1` , nothing else.
## Result bucket B
